B1: Reg1-FLAG (wild type) [S. cerevisiae] / Glc7-GFP [S. cerevisiae] (parent complex)
chain 1: MSTNLANYFAGKKDIENEHVNRNASHESNSKSDVKISGNDNDNDEDMGPSVSMAVQAKNDDDFHKSTFNLKRTRSMGLLDEYIDPTKKLLGRSDDLYDNDNEYYDNSSNNSSSNSSDDDYDDGYQEHSTSVSPPPADNDSYLIPQDDNDVVVEPERHVDYLSHEWKESEISNSWKYIILKKKKRDVDLVNAARLENASWRTWAKARNNLKTVSPEVVNWSKDSDVTWLYGPIVRDSEGNAQSEEEHDLERGYGSDDENSKRISMPTKNSKSIAAAPKPILKKRTVTEIIEDNALWKLNEARKHMTEMKHASVIMDPNGNKNVHDDFDALAAQVNAQYYHYPKESNSSVSLKSQHSDKKDNSTIPNPVGENSNGGGDKGEEDLHLKSALHVQNNRSTAQSNKSILENSTNDRKANLDQNLNSPDNNRFPSSTSSSNRDNENNSMGLSSILTSNPSEKSNKPTKNRHIHFNDRVEQCMALRYPASQSEDDESDDENKQYVDVNNNANVTTINNNRTPLLAIQHKSIPINSATEHLNKNTSDDDTSSQSSSSSHSDDEEHGGLYINARFSRRSDSGVHSPITDNSSVASSTTSRAHVRPIIKLLPDTTLNYGSDEESDNGEFNGYGNAVSHNVNTSRGYDYIYDYNSVYTGDTSSFLPVDSCDIVDVPEGMDLQTAIADDNASNYEFNNAVESKEKHVPQLHKASANNTTRQHGSHMLLYDDDNYSSSSDSEQQFIEDSQYNSSDDEEEEDDDDQEVDDNHDEGLSLRRTLSLGKSGSTNSLYDLAQPSLSSATPQQKNPTNFTGGKTDVDKDAQLAVRPYPLKRNSSSGNFIFNSDSEEESSSEEEQRPLPANSQLVNRSVLKGSVTPANISSQKKKALPKQPKASDSSQSFRIVNNTPSPAEVGASDVAIEGYFSPRNESIKSVVSGGNMMDHQDHSEMDTLAKGFENCHINNASKLKDKKVDSVQTTRKEASLTDSSNESLHKVVQNARGMASKYLHSWKKSDVKPQENGNDSS
chain 2: MDSQPVDVDNIIDRLLEVRGSKPGQQVDLEENEIRYLCSKARSIFIKQPILLELEAPIKICGDIHGQYYDLLRLFEYGGFPPESNYLFLGDYVDRGKQSLETICLLLAYKIKYPENFFILRGNHECASINRIYGFYDECKRRYNIKLWKTFTDCFNCLPIAAIIDEKIFCMHGGLSPDLNSMEQIRRVMRPTDIPDVGLLCDLLWSDPDKDIVGWSENDRGVSFTFGPDVVNRFLQKQDMELICRAHQVVEDGYEFFSKRQLVTLFSAPNYCGEFDNAGAMMSVDESLLCSFQILKPAQKSLPRQAGGRKKK

- Variants of: B1
- Assay name: co-immunoprecipitation (anti-FLAG IP, immunoblot quantification); n = 3; reg1Δ Snf1-GFP Glc7-GFP cells; parent: 1; read off a plot
Consider the following variants; for each one, report its ratio to parent.

Give ratio to parent for each of the items listed below.
1. chain 1 P278Q
2. chain 1 W165G
3. chain 1 A54T
4. chain 1 P231S
5. chain 1 N624S

1: ~0.8; 2: ~0.66; 3: ~0.93; 4: ~0.81; 5: ~1.5
